Data credit: paper PMC3314994

Please provide measured IC50 for the entries that follow.
Tgt: rhHDAC 6 (Homo sapiens, UniProt Q9UBN7)
Sequence (Q9UBN7 1-1215): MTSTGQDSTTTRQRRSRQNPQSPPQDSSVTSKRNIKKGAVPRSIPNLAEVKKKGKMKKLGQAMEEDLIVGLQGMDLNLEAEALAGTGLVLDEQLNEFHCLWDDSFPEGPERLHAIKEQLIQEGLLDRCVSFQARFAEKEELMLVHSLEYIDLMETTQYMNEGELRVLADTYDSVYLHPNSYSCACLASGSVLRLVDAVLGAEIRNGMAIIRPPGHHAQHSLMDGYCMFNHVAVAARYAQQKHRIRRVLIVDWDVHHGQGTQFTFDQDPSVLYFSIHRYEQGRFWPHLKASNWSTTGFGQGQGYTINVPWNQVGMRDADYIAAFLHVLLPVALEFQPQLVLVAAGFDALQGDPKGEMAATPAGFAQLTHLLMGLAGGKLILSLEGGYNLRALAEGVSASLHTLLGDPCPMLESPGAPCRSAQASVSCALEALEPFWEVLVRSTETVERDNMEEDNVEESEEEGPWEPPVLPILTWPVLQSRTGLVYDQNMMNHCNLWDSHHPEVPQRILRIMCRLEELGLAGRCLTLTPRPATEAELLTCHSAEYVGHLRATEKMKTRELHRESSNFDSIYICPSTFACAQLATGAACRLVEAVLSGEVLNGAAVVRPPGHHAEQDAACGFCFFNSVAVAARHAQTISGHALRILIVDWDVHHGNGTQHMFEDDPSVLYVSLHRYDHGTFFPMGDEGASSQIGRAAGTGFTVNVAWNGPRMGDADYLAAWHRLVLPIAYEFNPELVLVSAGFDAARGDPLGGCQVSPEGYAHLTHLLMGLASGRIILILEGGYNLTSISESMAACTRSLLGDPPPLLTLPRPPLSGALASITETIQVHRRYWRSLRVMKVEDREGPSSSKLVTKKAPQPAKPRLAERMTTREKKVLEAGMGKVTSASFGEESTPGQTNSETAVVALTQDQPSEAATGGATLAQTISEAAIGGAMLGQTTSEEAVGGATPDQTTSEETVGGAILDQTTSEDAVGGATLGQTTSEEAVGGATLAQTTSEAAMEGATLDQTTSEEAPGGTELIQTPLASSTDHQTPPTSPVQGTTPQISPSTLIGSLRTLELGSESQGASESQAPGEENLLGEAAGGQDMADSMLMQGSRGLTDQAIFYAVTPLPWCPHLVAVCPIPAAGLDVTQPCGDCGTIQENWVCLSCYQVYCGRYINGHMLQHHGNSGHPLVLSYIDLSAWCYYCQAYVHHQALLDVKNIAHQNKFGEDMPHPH
Assay: Inhibition of recombinant human HDAC isoforms
Experimental conditions: mean ± SD, triplicate per plate, min two plates; read-out: ED50 rhHDAC 6
Text: The compounds from the different structural subclasses were all active as HDAC inhibitors, measured in an assay of enzymes in HeLa cell lysates.[23,24] HeLa cells express multiple HDACs, including HDAC 1, 2, 3, 4, and 8.[25–27] […] To further characterise the compounds with respect to HDAC selectivity, we determined their inhibitory properties against recombinant expressed human HDACs (rhHDAC 1–4, 6–9).[28]
One number for each entry, in nM.

Study these solved cases before continuing.
Input smiles: O=C(/C=C/c1nc2ccccc2o1)NO
Unit name: nM
IC50: 68

Input smiles: O=C(/C=C/c1cccc(S(=O)(=O)Nc2cccc(F)c2)c1)NO
Unit name: nM
IC50: 35

Input smiles: COc1ccc(NS(=O)(=O)c2cccc(/C=C/C(=O)NO)c2)cc1
Unit name: nM
IC50: 36

Input smiles: COc1ccc(N2CCN(S(=O)(=O)c3cccc(/C=C/C(=O)NO)c3)CC2)cc1
Unit name: nM
IC50: 107

Input smiles: O=C(/C=C/c1cccc(S(=O)(=O)N2CCN(c3ccccn3)CC2)c1)NO
Unit name: nM
IC50: 179

**Q:** Item `COc1ccccc1N1CCN(S(=O)(=O)c2cccc(/C=C/C(=O)NO)c2)CC1` has what recorded IC50?
**A:** 305
